Quick note: these are IC50 numbers for system: Prostaglandin G/H synthase 1 (Homo sapiens, UniProt P23219)
Sequence (P23219 whole entry): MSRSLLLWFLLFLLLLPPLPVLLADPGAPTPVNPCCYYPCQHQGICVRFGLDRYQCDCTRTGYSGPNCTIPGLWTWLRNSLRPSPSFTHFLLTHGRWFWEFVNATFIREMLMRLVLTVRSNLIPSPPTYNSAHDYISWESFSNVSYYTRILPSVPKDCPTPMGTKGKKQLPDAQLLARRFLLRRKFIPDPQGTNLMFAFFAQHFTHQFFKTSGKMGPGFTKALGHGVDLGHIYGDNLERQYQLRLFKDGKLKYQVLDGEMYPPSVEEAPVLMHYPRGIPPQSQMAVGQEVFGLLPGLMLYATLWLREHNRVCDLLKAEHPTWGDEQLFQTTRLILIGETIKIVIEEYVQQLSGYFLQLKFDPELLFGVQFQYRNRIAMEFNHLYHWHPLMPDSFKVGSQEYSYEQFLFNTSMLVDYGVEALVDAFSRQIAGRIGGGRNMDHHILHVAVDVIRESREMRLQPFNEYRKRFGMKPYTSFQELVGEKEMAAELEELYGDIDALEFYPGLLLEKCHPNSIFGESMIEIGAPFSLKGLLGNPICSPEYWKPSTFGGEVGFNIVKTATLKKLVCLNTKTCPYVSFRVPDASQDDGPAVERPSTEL
observed_property: IC50 (µM)

A. CCCCC1SC(c2cccc(Oc3ccccc3)c2)N(CCCCc2ccc(C(=O)OC)cc2)C1=O (configuration not stated)
B. CCCCC1SC(c2cccc(Oc3ccc(Cl)cc3)c2)N(CCCCc2ccc(C(=O)OC(C)(C)C)cc2)C1=O (configuration not stated)
**Query** Higher IC50: A or B ? Please identify the chosen entry by its label.
**Result** B
(B: 9.4 µM, A: 3.7 µM)
